# Test system: spores of ATCC BBA1870 strain
# Protocol Text: Inhibition of germination of C. difficile spores (MIC), strain ATCC BBA1870
# Assay type: cell-based
# Stated Conditions: Clostridioides difficile, ATCCBBA1870STRAIN, 1 h; strain 1870; sodium taurocholate as germinant, BHIS medium, 37° C., OD580 for 60 min; read-out: MIC (minimum concentration that completely inhibits spore germination)
Cut-off 8 µM on MIC: below means Satisfied, at or above means Not satisfied.

| Molecule | Label |
| --- | --- |
| CC(C)C(NC(=O)C[C@@H](C)[C@H]1CC[C@H]2[C@@H]3[C@H](O)[C@H](O)[C@@H]4C[C@H](O)CC[C@]4(C)[C@H]3CC[C@]12C)c1cccs1 (stereo partly shown) | Not satisfied |
| CC(C)[C@@H](NC(=O)C[C@@H](C)[C@H]1CC[C@H]2[C@@H]3CC(=O)[C@@H]4CC(=O)CC[C@]4(C)[C@H]3CC[C@]12C)c1ccc(Cl)s1 | Satisfied |
| C[C@H](CC(=O)NCc1ccccn1)[C@H]1CC[C@H]2[C@@H]3[C@H](O)C[C@@H]4C[C@H](O)CC[C@]4(C)[C@H]3CC[C@]12C | Not satisfied |
| CO[C@@H]1CC[C@@]2(C)[C@@H](C1)C[C@@H](O)[C@@H]1[C@@H]2CC[C@]2(C)[C@@H]([C@H](C)CC(=O)N[C@@H](c3ccc(Cl)s3)C(C)C)CC[C@@H]12 | Not satisfied |
| CCC(NC(=O)C[C@@H](C)[C@H]1CC[C@H]2[C@@H]3C(=O)C[C@@H]4CC(=O)CC[C@]4(C)[C@H]3CC[C@]12C)c1cccs1 (stereo partly shown) | Satisfied |
| CC(C)[C@H](NC(=O)C[C@@H](C)[C@H]1CC[C@H]2[C@@H]3C(=O)C[C@@H]4CC(=O)CC[C@]4(C)[C@H]3CC[C@]12C)c1ccc(S(=O)(=O)O)s1 | Not satisfied |
| CC(C)[C@@H](NC(=O)C[C@@H](C)[C@H]1CC[C@H]2[C@@H]3[C@H](O)C[C@@H]4CC(=O)CC[C@]4(C)[C@H]3CC[C@]12C)c1ccc(Br)s1 | Satisfied |
| CC(C)[C@@H](NC(=O)C[C@@H](C)[C@H]1CC[C@H]2[C@@H]3[C@@H](O)C[C@@H]4C[C@H](O)CC[C@]4(C)[C@H]3CC[C@]12C)c1ccc(Br)s1 | Not satisfied |
| CCC(NC(=O)C[C@@H](C)[C@H]1CC[C@H]2[C@@H]3[C@H](O)C[C@@H]4CC(=O)CC[C@]4(C)[C@H]3CC[C@]12C)c1cccs1 (stereo partly shown) | Satisfied |
| CC(C)[C@@H](NC(=O)C[C@@H](C)[C@H]1CC[C@H]2[C@@H]3[C@H](O)C[C@@H]4C[C@H](O)CC[C@]4(C)[C@H]3CC[C@]12C)c1ccc(Br)s1 | Satisfied |
| CC(=O)O[C@@H]1CC2=CC(=O)C=C[C@]2(C)[C@H]2CC[C@]3(C)[C@@H]([C@H](C)CC(=O)N[C@@H](c4ccc(Cl)s4)C(C)C)CC[C@H]3[C@H]12 | Satisfied |
| CC[C@@H](NC(=O)C[C@@H](C)[C@H]1CC[C@H]2[C@@H]3[C@H](O)[C@H](O)[C@@H]4CC(=O)CC[C@]4(C)[C@H]3CC[C@]12C)c1ccc(Br)s1 | Not satisfied |
| CC(C)C(NC(=O)C[C@@H](C)[C@H]1CC[C@H]2[C@@H]3C(=O)C[C@@H]4CC(=O)CC[C@]4(C)[C@H]3CC[C@]12C)c1cccs1 (stereo partly shown) | Satisfied |
| CCCCCCCC(NC(=O)C[C@@H](C)[C@H]1CC[C@H]2[C@@H]3C(=O)C[C@@H]4CC(=O)CC[C@]4(C)[C@H]3CC[C@]12C)c1cccs1 (stereo partly shown) | Not satisfied |
| C[C@H](CC(=O)NCC1CC1)[C@H]1CC[C@H]2[C@@H]3[C@H](O)C[C@@H]4C[C@H](O)CC[C@]4(C)[C@H]3CC[C@]12C | Not satisfied |
| C[C@H](CC(=O)NCC1CC1)[C@H]1CC[C@H]2[C@@H]3[C@@H](O)C[C@@H]4C[C@H](O)CC[C@]4(C)[C@H]3CC[C@]12C | Not satisfied |
| CCC(NC(=O)C[C@@H](C)[C@H]1CC[C@H]2[C@@H]3[C@H](O)[C@H](O)[C@@H]4C[C@H](O)CC[C@]4(C)[C@H]3CC[C@]12C)c1ccc(Br)s1 (stereo partly shown) | Not satisfied |
